Ref: ChEMBL document CHEMBL1152584

# Lookup of reported Ratio IC50 keyed by entry
Target: Glycine receptor subunit alpha-1 (Rattus norvegicus)
Sequence (whole entry): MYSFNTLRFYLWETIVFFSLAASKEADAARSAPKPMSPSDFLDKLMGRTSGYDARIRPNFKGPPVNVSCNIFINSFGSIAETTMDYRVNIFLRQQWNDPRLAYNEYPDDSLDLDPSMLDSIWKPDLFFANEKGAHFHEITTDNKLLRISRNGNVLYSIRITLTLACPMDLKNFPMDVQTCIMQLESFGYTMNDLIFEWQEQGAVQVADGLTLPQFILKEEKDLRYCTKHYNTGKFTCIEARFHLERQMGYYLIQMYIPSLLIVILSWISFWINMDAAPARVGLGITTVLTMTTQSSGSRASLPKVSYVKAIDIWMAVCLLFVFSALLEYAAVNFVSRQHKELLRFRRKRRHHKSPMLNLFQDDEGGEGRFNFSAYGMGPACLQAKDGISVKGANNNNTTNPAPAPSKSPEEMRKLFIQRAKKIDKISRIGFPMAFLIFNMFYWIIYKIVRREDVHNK
Experiment: Selectivity ratio of IC50 for GlyR low affinity site to IC50 for GlyR high affinity site in Wistar rat spinal cord
recorded_metric: Ratio IC50

                      smiles_representation  recorded_metric  assay_value
0  O=C(O[C@H]1C[C@H]2CC[C@@H](C1)N2)c1ccco1       Ratio IC50            1
1  O=C(O[C@H]1C[C@H]2CC[C@@H](C1)N2)c1cccs1       Ratio IC50            1
2  CN1[C@@H]2CC[C@H]1C[C@@H](OC(=O)c1cnc3ccccc3c1)C2       Ratio IC50           76
3  CN1[C@@H]2CC[C@H]1C[C@@H](OC(=O)c1cc3ccccc3n1C)C2       Ratio IC50          240
4  CN1[C@@H]2CC[C@H]1C[C@H](OC(=O)c1cc3ccccc3[nH]1)C2       Ratio IC50          133
5  Cn1c(C(=O)O[C@H]2C[C@H]3CC[C@@H](C2)N3)cc2ccccc21       Ratio IC50           11
6  O=C(O[C@H]1C[C@H]2CC[C@@H](C1)N2)c1ccc[nH]1       Ratio IC50            1
7  CN1[C@@H]2CC[C@H]1C[C@@H](OC(=O)c1ccco1)C2       Ratio IC50          200
8  O=C(O[C@H]1C[C@H]2CC[C@@H](C1)N2)c1cc2ccccc2[nH]1       Ratio IC50            1
9  CN1[C@@H]2CC[C@H]1C[C@@H](OC(=O)c1ccc[nH]1)C2       Ratio IC50          615

----------
Molecular target: Glycine receptor subunit alpha-1 (Rattus norvegicus)
Experiment: Selectivity ratio of IC50 for GlyR low affinity site to IC50 for GlyR high affinity site in Wistar rat spinal cord
# Lookup of reported Ratio IC50 keyed by entry
recorded_metric: Ratio IC50

In [3]: df
Out[3]:
                      smiles_representation  assay_value
0  O=C(O[C@H]1C[C@H]2CC[C@@H](C1)N2)c1cccnc1            1
1  CN1[C@@H]2CC[C@H]1C[C@@H](OC(=O)c1cccs1)C2           47
2  O=C(O[C@H]1C[C@H]2CC[C@@H](C1)N2)c1cnc2ccccc2c1            1
3  CN1[C@@H]2CC[C@H]1C[C@@H](OC(=O)c1cccnc1)C2          390
4  CN1[C@@H]2CC[C@H]1C[C@@H](OC(=O)c1cccn1C)C2          > 1
